Below: a set of entries, each annotated with reported folding stability dG.
B1: HHH_rd2_0155 (parent)
chain: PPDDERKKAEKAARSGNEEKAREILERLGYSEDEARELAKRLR

# Variants of: B1
# TEST_METHOD_NOTES: folding stability dG (cDNA display proteolysis); higher = more stable
# RECORDED_CONDITIONS: PBS, room temperature
Answer format: number, then unit.

1. K40A ... 8.63 kJ/mol
2. R14H ... 6.68 kJ/mol
3. E18H ... 6.04 kJ/mol
4. E34L ... 5.66 kJ/mol
5. A35W ... 4.2 kJ/mol

Please look up its folding stability dG: K40D
5.46 kJ/mol

Please look up its folding stability dG: G29T
0.598 kJ/mol

Please look up its folding stability dG: E32V
8.38 kJ/mol

Please look up its folding stability dG: A21M
6.1 kJ/mol

Please look up its folding stability dG: D3T
8.14 kJ/mol
